- TARGET_OR_TEST_SYSTEM: human JAK1 (a.a. 837-1142)
- PROCEDURE_SUMMARY: In vitro JAK kinase assay (HTRF, phosphorylation of a biotinylated peptide), JAK1
- Assay type: biochemical
- CONDITION_LABEL: measured at 1 mM ATP; JAK2 IC50 / JAK1 IC50
READOUT_KIND: IC50 Ratio JAK2/JAK1
Write no unit; give the number alone.

## Input Consider the compound N#CCC1(n2cc(-c3ncnc4[nH]ccc34)cn2)CN(C2CCN(C(=O)c3cc4ccc(C(F)(F)F)cc4s3)CC2)C1 [Example 94] and give its measured IC50 Ratio JAK2/JAK1.
## Output 1.0

## Input Query N#CCC1(n2cc(-c3ncnc4[nH]ccc34)cn2)CN(C2CC3CCC(C2)N3C(=O)c2ccc(C#N)c(F)c2)C1 (centres unmarked) [Example 140] next
## Output 5.4

## Input Field entry: N#CCC1(n2cc(-c3ncnc4[nH]ccc34)cn2)CN(C2CCN(C(=O)Nc3cc(F)cc(F)c3)CC2)C1 [Example 175]
## Output 3.6

## Input Now give it for N#CCC1(n2cc(-c3ncnc4[nH]ccc34)cn2)CN(C2CCN(S(=O)(=O)c3ccc(C#N)cc3)CC2)C1 [Example 249] too.
## Output 2.1

## Input Same question, COc1ccc(F)cc1C(=O)N1CCC(N2CC(CC#N)(n3cc(-c4ncnc5[nH]ccc45)cn3)C2)CC1 [Example 38] this time
## Output 5.7

## Input Likewise for N#CCC1(n2cc(-c3ncnc4[nH]ccc34)cn2)CN(C2CCN(C(=O)c3ccsc3Br)CC2)C1 [Example 75] ?
## Output 3.4

## Input Thanks! And N#CCC1(n2cc(-c3ncnc4[nH]ccc34)cn2)CN(C2CCN(C(=O)Nc3ccc(OC(F)(F)F)cc3)CC2)C1 [Example 182] ?
## Output 3.7

## Input Another compound: CS(=O)(=O)N1CCC(N2CC(CC#N)(n3cc(-c4c(C#N)cnc5[nH]ccc45)cn3)C2)CC1 [Example 357]
## Output 3.8

## Input // same read-out, input: COc1ccc(CN2CCC(N3CC(CC#N)(n4cc(-c5ncnc6[nH]ccc56)cn4)C3)CC2)c(Cl)c1OC [Example 239]
## Output 2.3

## Input Same read-out for CC1CC(N2CC(CC#N)(n3cc(-c4ncnc5[nH]ccc45)cn3)C2)CCN1Cc1c(F)cccc1Cl (centres unmarked) [Example 245] ?
## Output 1.5

## Input Request: N#CCC1(n2ccc(-c3ncnc4[nH]ccc34)c2)CN(C2CCN(C(=O)c3cnc(C(F)(F)F)cn3)CC2)C1 [Example 347]
## Output 2.7

## Input Entry to check: N#CCC1(n2cc(-c3ncnc4[nH]ccc34)cn2)CN(C2CCN(Cc3c(C(F)(F)F)ccc(Cl)c3F)CC2)C1 [Example 236]
## Output 5.5

## Input Same for N#CCC1(n2cc(-c3ncnc4[nH]ccc34)cn2)CN(C2CCN(C(=O)c3c(F)ccc(F)c3F)CC2)C1 [Example 47]
## Output 3.7

## Input Moving on to N#CCC1(n2cc(-c3c(F)cnc4[nH]ccc34)cn2)CN(C2CCN(C(=O)c3ccc(C#N)cc3F)CC2)C1 [Example 317]
## Output 4.5

----------
- TARGET_OR_TEST_SYSTEM: human JAK1 (a.a. 837-1142)
- PROCEDURE_SUMMARY: In vitro JAK kinase assay (HTRF, phosphorylation of a biotinylated peptide), JAK1
- Format: biochemical
- CONDITION_LABEL: measured at 1 mM ATP; JAK2 IC50 / JAK1 IC50
Could you please report measured IC50 Ratio JAK2/JAK1 for the items listed next?
Answer with the value's number alone.

## Input Would you mind telling me what IC50 Ratio JAK2/JAK1 value was observed for COc1ccsc1C(=O)N1CCC(N2CC(CC#N)(n3cc(-c4ncnc5[nH]ccc45)cn3)C2)CC1 ?
## Output 4.2

## Input Okay, and N#CCC1(n2cc(-c3ccnc4[nH]ccc34)cn2)CN(C2CCN(C(=O)c3ccc(O)cc3F)CC2)C1 ?
## Output 10.0

## Input Entry to check: COc1ccc(C(=O)N2CCC(N3CC(CC#N)(n4cc(-c5ncnc6[nH]ccc56)cn4)C3)CC2)cc1F
## Output 12.0

## Input What do you have for CN(C)c1ccc(C(=O)N2CCC(N3CC(CC#N)(n4cc(-c5ncnc6[nH]ccc56)cn4)C3)CC2)c(F)c1C#N ?
## Output 6.3
